- Tested on: SR leukemia
- measurement protocol: NCI tumour cell line growth inhibition, 48 h; in the data active = GI50 below about 0.43 µM; inactive = the rest
I would appreciate it if you answered using one of these outcomes: 1 = active, 0 = inactive

Worked set:
{"columns": ["molecule", "answer label"],
 "data": [
  ["Clc1coc2nc3ccccc3c(Nc3ccc4c(c3)OCO4)c12", 1],
  ["CC(=O)OC1Oc2ccccc2-c2oc(=O)c(-c3cc(=O)oc4cc(O)ccc34)cc21 (stereo not drawn)", 0]
]}

Turning now to a further molecule:
Query :: So what was the verdict on CCN1CCN(c2ccc(Nc3cc(N(C)C(=O)Nc4c(Cl)c(OC)cc(OC)c4Cl)ncn3)cc2)CC1 in this test?
Result :: 0

---

A collection of compounds and their measured TGI
- System: SNB-75 CNS
- measurement protocol: NCI tumour cell line growth inhibition, 48 h
Numbers only; they are read as µM.

{"columns": ["compound", "assay target", "TGI / µM"],
 "data": [
  ["COc1ccc2nc3ccc(OC)cc3c(S(=O)CCCl)c2c1 (centres undefined)", "SNB-75 CNS", 33.1]
]}

// next item, TGI requested
Query :: Consider the compound COc1ccc(C2CC(=O)CC(c3ccc(OC)cc3)C23C(=O)NC(=O)NC3=O)cc1 (centres undefined) and give its measured TGI.
Result :: 67.1

---

- System: BT-549 breast
- measurement protocol: NCI tumour cell line growth inhibition, 48 h
quantity measured: GI50

# example entries with known answers
{"columns": ["compound", "assay target", "GI50"],
 "data": [
  ["CCOC(=O)/C=C/C(C(=O)/C=C/c1ccc(OC2CCCCO2)c(OC)c1)=C(O)\\C=C\\c1ccc(OC2CCCCO2)c(OC)c1 (stereo unspecified)", "BT-549 breast", "5.18 µM"],
  ["C=C(F)C(=O)N1CCN(c2nc(OC[C@@H]3CCCN3C)nc3c2CCN(c2cccc4cccc(Cl)c24)C3)C[C@@H]1CC#N", "BT-549 breast", "2.19 µM"],
  ["O=C(Nc1ccc(OS(=O)(=O)c2ccccc2)cc1)C12CC3CC(CC(C3)C1)C2", "BT-549 breast", "3.24 µM"],
  ["COc1ccc(N2C(=O)C(c3ccccc3)(c3ccccc3)C23C(=O)N(C)c2ccccc23)cc1 (stereo unspecified)", "BT-549 breast", "> 100 µM"]
]}

Query :: Fill in the blank: the reported GI50 of COc1ccc(C(=O)c2cc(OC)c(C)c(OC)c2)cc1OC(=O)CCl is ____.
Result :: 0.395 µM

Query :: // returns reported GI50 for input CC/C(=C(/c1ccc(OCCN(C)C)cc1)c1ccc(OC(=O)CCCCC(=O)c2c(C)[nH]c(/C=C3\N=C(c4ccc[nH]4)C=C3OC)c2C)cc1)c1ccccc1
Result :: 3.57 µM

---

- System: HOP-92 NSCLC
- measurement protocol: NCI tumour cell line growth inhibition, 48 h
Classification field: enter T for TGI values not below 40 µM, F for values below it.

Completed entries (count: 8):
{"columns": ["molecule", "answer label"],
 "data": [
  ["O=c1[nH]c(-c2ccc3ccccc3c2)nc2ccccc12", "T"],
  ["NC(=O)C(N)Cc1ccc(O)cn1 (centres undefined)", "T"],
  ["O=S(=O)([O-])c1ccc2c(c1)-c1nc-2nc2[n-]c(nc3nc(nc4[n-]c(n1)c1ccc(S(=O)(=O)[O-])cc41)-c1cc(S(=O)(=O)[O-])ccc1-3)c1ccc(S(=O)(=O)[O-])cc21.[Cu+2].[Na+]", "T"],
  ["CCC(=O)NC(Nc1cccc(F)c1C)(C(F)(F)F)C(F)(F)F", "T"],
  ["COC(C)(C)C1=CCC(C)CC1 (centres undefined)", "T"],
  ["CCN(CC)c1c(N(CC)CC)c(=O)c1=O", "F"],
  ["NCCCNc1nc2ccccc2c2c(=O)c3cc(OC(F)(F)F)ccc3sc12", "F"],
  ["O=C1c2ccccc2C2(Br)C(=O)c3ccccc3C12 (centres undefined)", "T"]
]}

Query :: Assess whether reported TGI for NS(=O)(=O)c1nn2c(Br)c(-c3ccccc3)nc2s1 sits at 40 µM or higher.
Result :: F

Query :: Hello, I need to know if COc1ccc(N2C(=O)C(c3ccccc3)(c3ccccc3)C23C(=O)N(C)c2ccccc23)cc1 (centres undefined) has measured TGI not below 40 µM. Thanks!
Result :: T

Query :: Answer whether TGI of COc1ccc(C(=O)c2cc(OC)c(C)c(OC)c2)cc1OC(=O)CCl is greater than or equal to 40 µM.
Result :: T
